Reported relative kcat/Km values for a set of sequences
- tested-system: E. coli RNase P holoenzyme (M1 P RNA + rnpA protein) (UniProt P0A7Y8)
- Sequence: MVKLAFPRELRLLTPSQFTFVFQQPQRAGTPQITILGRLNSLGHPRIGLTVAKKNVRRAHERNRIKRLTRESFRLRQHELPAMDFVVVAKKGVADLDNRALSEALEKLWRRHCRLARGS
- test-summary: relative kcat/Km (krel) vs genomic leader AAAGAU (relative (reference leader = 1)); higher = faster RNase P cleavage
- test-context: fraction of substrate reacted: ~26-29% (28.66% repeat 1, 26.4% repeat 2)
In all, about 4,100 sequences were measured (“relative kcat/Km (krel) vs genomic leader AAAGAU”: median about 1.7, highest 2% from about 6.5 on). This excerpt belongs to a sample that is enriched for the highest values.

| seq | relative kcat/Km |
| --- | --- |
| TACCAC | 6.63 |
| CGCATG | 1.43 |
| CACCAT | 7.01 |
| AACCAT | 4.77 |
| TTGCAG | 1.37 |
| TACCTT | 5.64 |
| ATATAT | 6.84 |
| ATACTT | 2.62 |
| GAAGAA | 2.76 |
| AGCCTA | 2.57 |
| GTACGC | 3.72 |
| CCCATA | 4.43 |
| ATCAGG | 1.41 |
| ATCAGA | 7.03 |
| GCGGAG | 0.583 |
| ACATTT | 4.45 |
| ATATAA | 4.9 |
| GTCGGA | 1.51 |
| GACAAG | 4.06 |
| CACATT | 6.23 |
| TCCCAC | 7.79 |
| ACGCTA | 1.74 |
| CTATAA | 4.92 |
| GTATAT | 7.89 |
| CCCCAA | 4.97 |
| GGAGAG | 1.19 |
| CTGGCG | 0.461 |
| ATATAG | 3.88 |
| CGCGGG | 0.258 |
| GAATTA | 2.25 |
| GACCAT | 5.96 |
| TACAAT | 7.14 |
| GACACG | 2.6 |
| TACCAA | 6.07 |
| CACGCT | 3.03 |
| GTCAGA | 9.06 |
| ACCCAA | 4.83 |
| TTATAT | 8.54 |
| GCCAGA | 5.56 |
| GTATAA | 5.6 |
| TGGAAA | 1.61 |
| GCCCAC | 5.93 |
| CACACT | 4.82 |
| CACAAT | 6.78 |
| TTTGGG | 1.56 |
| TACCAG | 4.81 |
| ATCGTA | 5.45 |
| AACAAT | 4.49 |
| TCCCAA | 6.94 |

* * *

- tested-system: E. coli RNase P holoenzyme (M1 P RNA + rnpA protein) (UniProt P0A7Y8)
- Sequence: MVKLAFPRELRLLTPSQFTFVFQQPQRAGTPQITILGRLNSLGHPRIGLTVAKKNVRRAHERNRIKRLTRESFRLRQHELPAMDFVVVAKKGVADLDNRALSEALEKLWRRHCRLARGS
- test-summary: relative kcat/Km (krel) vs genomic leader AAAGAU (relative (reference leader = 1)); higher = faster RNase P cleavage
- test-context: fraction of substrate reacted: ~9-10% (9.79% repeat 1, 9.1% repeat 2)
The full ranking holds about 4,100 sequences; the median of “relative kcat/Km (krel) vs genomic leader AAAGAU” is about 1.7, and the highest 2% start at about 6.5. The sample holds the highest values, similar sequences and a random draw of the others, so the mix is not that of the screen.

| seq | relative kcat/Km |
| --- | --- |
| AGTTAG | 2.06 |
| CTCCCT | 3 |
| GTCCCT | 2.62 |
| TAGTAC | 4.35 |
| CGCCAT | 3 |
| TGCCAA | 3.18 |
| AGTTAC | 3.18 |
| GGTCAA | 0.981 |
| GGCAAA | 2.21 |
| GTCAAA | 4.62 |
| AAGTAA | 2.99 |
| GTCAAT | 3.17 |
| ATCAAA | 3.96 |
| ACTTAC | 3.88 |
| GTCAAG | 1.75 |
| AGAAAA | 3.05 |
| TTCCCC | 3.49 |
| TCGTCA | 2.78 |
| CTCCAT | 4.25 |
| AAGCAC | 2.14 |
| GTCCAT | 4.26 |
| TTCCAG | 2.51 |
| GAGTTT | 1.6 |

* * *

- tested-system: E. coli RNase P holoenzyme (M1 P RNA + rnpA protein) (UniProt P0A7Y8)
- Sequence: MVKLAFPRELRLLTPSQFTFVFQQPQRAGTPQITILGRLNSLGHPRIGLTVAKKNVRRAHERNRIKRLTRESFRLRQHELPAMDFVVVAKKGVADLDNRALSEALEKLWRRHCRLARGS
- test-summary: relative kcat/Km (krel) vs genomic leader AAAGAU (relative (reference leader = 1)); higher = faster RNase P cleavage
- test-context: fraction of substrate reacted: ~26-29% (28.66% repeat 1, 26.4% repeat 2)
In all, about 4,100 sequences were measured (“relative kcat/Km (krel) vs genomic leader AAAGAU”: median about 1.7, highest 2% from about 6.5 on). The sample as a whole holds a higher share of the highest values than the screen did.

| seq | tested-system | relative kcat/Km |
| --- | --- | --- |
| CTTAGA | E. coli RNase P holoenzyme (M1 P RNA + rnpA protein) (UniProt P0A7Y8) | 4.79 |
| GCCGCC | E. coli RNase P holoenzyme (M1 P RNA + rnpA protein) (UniProt P0A7Y8) | 5.43 |
| CCCGCC | E. coli RNase P holoenzyme (M1 P RNA + rnpA protein) (UniProt P0A7Y8) | 4.94 |
| CAGCTA | E. coli RNase P holoenzyme (M1 P RNA + rnpA protein) (UniProt P0A7Y8) | 1.85 |
